- RUN_DESCRIPTION: in vitro
- RUN_CONDITIONS: Chinese hamster, CHO cells with S9, % Cytotoxicity Cell Numbers, second section (CHO + S9, HCA), 3.1E−05 M
MEASUREMENT_NAME: cytotoxicity at 31 µM

Would you kindly share the measured cytotoxicity at 31 µM for O=C(/C=C/c1ccc2c(c1)CCN2S(=O)(=O)c1ccccc1)NO ?
69%

----------
- RUN_DESCRIPTION: in vitro
- RUN_CONDITIONS: Chinese hamster, CHO cells with S9, % Cytotoxicity Cell Numbers, second section (CHO + S9, HCA), 1.6E−05 M
MEASUREMENT_NAME: cytotoxicity at 16 µM (%)
// return numeric value only (unit: %, not printed)

Please give the measured cytotoxicity at 16 µM for this compound: O=C(/C=C/c1ccc2c(c1)CCN2S(=O)(=O)c1ccccc1)NO
60.4
